assay: folding enthalpy; higher = less favourable; fluorescence melt of hairpins on a sequencing array, two-state fit; settings: sodium 0.088 M
# class assignment by measured folding enthalpy: bin 1: < -40 kcal/mol; bin 2: ≥ -40 kcal/mol and < -20 kcal/mol; bin 3: ≥ -20 kcal/mol

# residue.codes, group
rows = [
    ("GCCCCGCGAAAGCTGTGC ((.(.((....)).).))", "bin 3"),
    ("GCATGGCGAAAGCCTGC (((.(((....))))))", "bin 2"),
    ("GATCGGAAGCCGATC ((((((...))))))", "bin 2"),
    ("GGAGAGACGAAAGTCTCC (((..(((....))))))", "bin 3"),
    ("GCCCGGCGAAAGCTGAGC ((.(.((....)).).))", "bin 3"),
    ("GATCATGCCAATGATC ((((((....))))))", "bin 1"),
    ("GTGCCCGAAAGGGCGCAC ((((((....)))..)))", "bin 3"),
    ("GATCTCGTGTGAGATC ((((((....))))))", "bin 2"),
    ("GATCTGCCCGCAGATC ((((((....))))))", "bin 1"),
    ("GATCTATTTGTAGATC ((((((....))))))", "bin 2"),
    ("GGACGCGGAAACGCATCC (((.(((....))).)))", "bin 2"),
]

----------
# folding enthalpy listing for each entry below
experiment: folding enthalpy; higher = less favourable; fluorescence melt of hairpins on a sequencing array, two-state fit; settings: sodium 0.088 M
quantity.kind: folding enthalpy (kcal/mol)

# residue.codes, units, measurement
data = [
    ("GGTGTCGAAAGACATACC ((((((....)))..)))", "kcal/mol", -13.9),
    ("GAGTACCGAAAGGTCCTC (((.(((....))).)))", "kcal/mol", -25.2),
    ("GGCGGAGGAAACCCCACC ((.((.(....).)).))", "kcal/mol", -20.2),
    ("GATGTGGGAAACCACACC (.(((((....))))).)", "kcal/mol", -14.1),
    ("GATCCTCCGAGGATC ((((((...))))))", "kcal/mol", -33.1),
    ("GCGAAACGTCGC ((((....))))", "kcal/mol", -19.5),
    ("CGAGCGGAAACGCAATCG ((((((....)))..)))", "kcal/mol", -19.3),
    ("GGACATCGAAAGATATCC (((.(((....))).)))", "kcal/mol", -29.8),
    ("GTATAACGAAAGTTGTAC (((.(((....))).)))", "kcal/mol", -28.4),
    ("GCTACCACGAAAGTGAGC (((..(((....))))))", "kcal/mol", -15.3),
    ("GTGGCCGAAAGGCTCAC ((((((....))).)))", "kcal/mol", -16.2),
    ("GATCAGTCTTCTGATC ((((((....))))))", "kcal/mol", -37.8),
    ("GGCCAGACGAAAGTCGCC (((..(((....))))))", "kcal/mol", -13.3),
    ("GATCGCCTAAGCGATC ((((((....))))))", "kcal/mol", -40.8),
    ("GCAACTCGAAAGAGGTGC (((.(((....))).)))", "kcal/mol", -40.6),
    ("GCTCCGCGAAAGCCGCGC ((.(.((....)).).))", "kcal/mol", -11.8),
    ("GATCACATAGTGATC ((((((...))))))", "kcal/mol", -40),
    ("GTGCATGGAAACGTGCAC (((((.(....).)))))", "kcal/mol", -47),
    ("GAGCACGAAAGTGATCTC ((((((....)))..)))", "kcal/mol", -23.7),
    ("GGCTTCGAAAGAAGAGCC ((((((....)))..)))", "kcal/mol", -21.8),
    ("GTCACTGGAAACAGTGGC (.(((((....))))).)", "kcal/mol", -40.8),
    ("GTCTACGGAAACATAGAC (((((.(....).)))))", "kcal/mol", -27.1),
    ("GTCACCGGAAACGGTAAC ((.((((....)))).))", "kcal/mol", -16.6),
    ("GCCAGGCGAAAGCAAGGC (((..((....))..)))", "kcal/mol", -26.5),
    ("GGAAATCGAAAGATTCC (((.(((....))))))", "kcal/mol", -20.9),
]

----------
experiment: folding enthalpy; higher = less favourable; fluorescence melt of hairpins on a sequencing array, two-state fit; conditions: sodium 0.088 M
quantity.kind: folding enthalpy (kJ/mol)

# residue.codes, units, measurement
data = [
    ("GGCGAACGAAAGTTGGCC (((.(((....))).)))", "kJ/mol", -178),
    ("GGAGTCCGAAAGGAATCC (((.(((....))).)))", "kJ/mol", -174),
    ("GGTGCCCGAAAGGGACC (((.(((....))))))", "kJ/mol", -89.9),
    ("GTCTAGGGAAACTTAGAC (((((.(....).)))))", "kJ/mol", -152),
    ("GGGGTGCGAAAGCATCCC (((.(((....))).)))", "kJ/mol", -119),
    ("GTGCGAGGAAACTCGCGC (.(((((....))))).)", "kJ/mol", -76),
    ("GGCTTGAAAAAGCC (((((....)))))", "kJ/mol", -131),
    ("GATCTCACGGGAGATC ((((((....))))))", "kJ/mol", -164),
    ("GCCCTGCGAAAGCCGTGC ((.(.((....)).).))", "kJ/mol", -48.4),
    ("GCCTTAGGAAACTAGGGC (((.(((....))).)))", "kJ/mol", -144),
    ("GCGGTTTGCCGC ((((....))))", "kJ/mol", -172),
    ("CGACCGGAAACGGAGTCG ((((((....)))..)))", "kJ/mol", -114),
]

----------
test: folding enthalpy; higher = less favourable; fluorescence melt of hairpins on a sequencing array, two-state fit; settings: sodium 0.088 M

# residue.codes, folding enthalpy
records = [
    ("GCAGATGCGAAAGCATGC (((..(((....))))))", "-13.6 kcal/mol"),
    ("GCGATACTCGC ((((...))))", "-22.8 kcal/mol"),
    ("GTCGGTGGAAACACTGAC (((.(((....))).)))", "-40.6 kcal/mol"),
    ("GCAAAGACGAAAGTCTGC (((..(((....))))))", "-15.7 kcal/mol"),
    ("GCCGGTGGAAACATCGGC ((((.((....)).))))", "-45.8 kcal/mol"),
    ("GTATGTACGAAAGTATAC (((..(((....))))))", "-11.4 kcal/mol"),
    ("GAGGGTGGAAACGCCTTC ((.((.(....).)).))", "-25.7 kcal/mol"),
    ("GCTCTCGAAAGAGTAAGC ((((((....)))..)))", "-22.6 kcal/mol"),
    ("GATGCACGAAAGTGATC (((.(((....))))))", "-13.6 kcal/mol"),
    ("GATCCTACTGAGGATC ((((((....))))))", "-39.7 kcal/mol"),
    ("GTATGTGGAAACATATGC (.((.((....)).)).)", "-24.1 kcal/mol"),
    ("GCGCTTCGAAAGAATCGC (((.(((....))).)))", "-41.3 kcal/mol"),
    ("GCGTATGGAAACGTACGC (((((.(....).)))))", "-48 kcal/mol"),
    ("GTGATGGGAAACTATCGC (.(((.(....).))).)", "-23.4 kcal/mol"),
    ("GGCTCCGAAAGGAAGCC ((((((....))).)))", "-37.7 kcal/mol"),
    ("GCAACGGGAAACTGTTGC (((((.(....).)))))", "-40.8 kcal/mol"),
    ("GTCACCGAAAGGTCGAC ((((((....))).)))", "-20.1 kcal/mol"),
    ("GGGTGTCGAAAGACCCC (((.(((....))))))", "-35.6 kcal/mol"),
    ("GCAAGGCGAAAGCGCTGC (((..((....))..)))", "-17.3 kcal/mol"),
    ("GATCGACTACTCGATC ((((((....))))))", "-36.5 kcal/mol"),
    ("GATTGTGGAAACACAGTC ((.((((....)))).))", "-26.4 kcal/mol"),
    ("GCCCGGCGAAAGCAGCGC ((.(.((....)).).))", "-16.4 kcal/mol"),
    ("GTTTCAGGAAACCGAAAC (((((.(....).)))))", "-30 kcal/mol"),
    ("GCGGTCGGCCGC ((((....))))", "-24.2 kcal/mol"),
    ("GGAGTCGCGAAAGCGTCC (((..(((....))))))", "-12.3 kcal/mol"),
]
